- TARGET OR SYSTEM: DβH (Homo sapiens)
- Construct: reaction mixture (total volume 500 μl) contained: cellular homogenate (75 μg total protein); host or cells: SK-N-SH cell homogenate
- Sequence (P09172 1-617): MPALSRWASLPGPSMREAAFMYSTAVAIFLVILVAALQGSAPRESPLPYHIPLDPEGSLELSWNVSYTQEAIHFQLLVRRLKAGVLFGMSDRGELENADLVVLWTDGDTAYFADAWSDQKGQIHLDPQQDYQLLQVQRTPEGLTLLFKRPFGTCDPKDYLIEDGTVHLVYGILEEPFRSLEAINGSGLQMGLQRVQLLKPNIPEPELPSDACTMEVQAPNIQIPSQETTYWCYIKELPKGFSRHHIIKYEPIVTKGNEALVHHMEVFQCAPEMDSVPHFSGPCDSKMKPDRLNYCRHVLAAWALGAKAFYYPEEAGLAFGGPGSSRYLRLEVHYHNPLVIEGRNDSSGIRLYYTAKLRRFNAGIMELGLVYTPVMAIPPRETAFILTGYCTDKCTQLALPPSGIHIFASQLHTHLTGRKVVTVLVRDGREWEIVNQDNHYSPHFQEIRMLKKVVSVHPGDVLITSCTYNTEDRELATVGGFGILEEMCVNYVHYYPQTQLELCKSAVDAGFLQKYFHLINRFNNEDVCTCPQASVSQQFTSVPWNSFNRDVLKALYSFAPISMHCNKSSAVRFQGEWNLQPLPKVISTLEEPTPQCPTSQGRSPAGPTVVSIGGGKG
- TEST SUMMARY: DβH inhibition cell assay (SK-N-SH cellular homogenates, tyramine to octopamine)
- Format: biochemical
- PARTICULARS: inhibitor 1 μM; SK-N-SH cell homogenate; read-out: DβH activity in % of Ctrl (1 μM)
MEASUREMENT LABEL: remaining activity at 1 µM (%)

A selection of reference data follows.
MOLECULE: Cn1cc2n(c1=S)C[C@@]1(c3cc(F)cc(F)c3)C[C@@H]21
MEASUREMENT LABEL: remaining activity at 1 µM
VALUE: 17.4

MOLECULE: NC(=S)N1CCC(c2cc(F)cc(F)c2F)C1 (centres unmarked)
MEASUREMENT LABEL: remaining activity at 1 µM
VALUE: 15.9

MOLECULE: Cc1[nH]c(=S)n2c1C[C@H](c1c(F)c(F)cc(F)c1F)C2
MEASUREMENT LABEL: remaining activity at 1 µM
VALUE: 15

MOLECULE: Fc1cccc(F)c1[C@@]12C[C@@H]1c1c[nH]c(=S)n1C2
MEASUREMENT LABEL: remaining activity at 1 µM
VALUE: 17.9

MOLECULE: NC(=S)N1CC[C@@H](c2c(F)cc(F)cc2F)C1
MEASUREMENT LABEL: remaining activity at 1 µM
VALUE: 17.5

1 = CNC(=S)N1CC2(c3cc(F)cc(F)c3)CC2C1=O (centres unmarked)
2 = Fc1cccc([C@]23C[C@H]2c2c[nH]c(=S)n2C3)c1F
Given 1 and 2 , report the one with the higher recorded remaining activity at 1 µM. Record your answer as the label of the chosen record.
2
(2: 7.9%, 1: 0%)

* * *

- TARGET OR SYSTEM: DβH (Homo sapiens, UniProt P09172)
- Construct: reaction mixture (total volume 500 μl) contained: cellular homogenate (75 μg total protein); host or cells: SK-N-SH cell homogenate
- TEST SUMMARY: DβH inhibition cell assay (SK-N-SH cellular homogenates, tyramine to octopamine)
- Format: biochemical
- PARTICULARS: inhibitor 10 μM; SK-N-SH cell homogenate; read-out: DβH activity in % of Ctrl (10 μM)
MEASUREMENT LABEL: remaining activity at 10 µM (%)

A selection of reference data follows.
MOLECULE: CNC(=S)N1CCC(c2ccccc2)C1 (stereo not shown) [Example 31]
MEASUREMENT UNITS: %
remaining activity at 10 µM: 15.8
--
MOLECULE: NC(=S)N1CC2CC2(c2ccccc2)C1 (stereo not shown) [Example 8]
MEASUREMENT UNITS: %
remaining activity at 10 µM: 2.2
--
MOLECULE: NC(=S)N1CCC(c2cccs2)C1 (stereo not shown) [Example 2]
MEASUREMENT UNITS: %
remaining activity at 10 µM: 0
--
MOLECULE: Cc1cccc(C2CCN(C(N)=S)C2)c1 (stereo not shown) [Example 14, 3-m-tolylpyrrolidine-1-carbothioamide]
MEASUREMENT UNITS: %
remaining activity at 10 µM: 13.1
--
MOLECULE: NC(=S)N1CCC(c2ccc(F)cc2)C1 (stereo not shown) [Example 3]
MEASUREMENT UNITS: %
remaining activity at 10 µM: 3.9

P = Fc1cc(F)cc(C2Cc3c[nH]c(=S)n3C2)c1 (stereo not shown) [Example 50]
Q = NC(=S)N1CCC(c2cc(F)cc(F)c2)C1 (stereo not shown) [Example 12]
Could you determine which record has the numerically smaller remaining activity at 10 µM? Candidates: P and Q Record your answer as the label of the chosen record.
Q
(Q: 0%, P: 6.8%)

* * *

- TARGET OR SYSTEM: DβH (Homo sapiens, UniProt P09172)
- Construct: reaction mixture (total volume 500 μl) contained: cellular homogenate (75 μg total protein); host or cells: SK-N-SH cell homogenate
- TEST SUMMARY: DβH inhibition cell assay (SK-N-SH cellular homogenates, tyramine to octopamine)
- Format: biochemical
- PARTICULARS: inhibitor 0.1 μM; SK-N-SH cell homogenate; read-out: DβH activity in % of Ctrl (0.1 μM)
- Protocol: The ability of a compound to inhibit DβH activity may be assessed using the following cell assay. […] . […] Fetal bovine serum was removed from cells for 4 h prior to collection. For the preparation of cellular homogenates, media was removed and cell monolayers were washed with 50 mM Tris-HCl pH 7.4. […] Total protein was quantified in cellular homogenates with BioRad Protein Assay (BioRad) using a standard curve of BSA (50-250 μg/mL). […]
MEASUREMENT LABEL: remaining activity at 0.1 µM (%)

A selection of reference data follows.
COMPOUND: Fc1ccc(Cl)c(F)c1[C@]12C[C@H]1c1n[nH]c(=S)n1C2
TARGET OR SYSTEM: DβH (Homo sapiens, UniProt P09172)
VALUE: 45.8

COMPOUND: CNC(=S)N1C[C@@]2(c3cc(F)cc(F)c3)C[C@H]2C1=O
TARGET OR SYSTEM: DβH (Homo sapiens, UniProt P09172)
VALUE: 29.8

COMPOUND: Fc1ccc(Br)cc1[C@]12C[C@H]1c1c[nH]c(=S)n1C2
TARGET OR SYSTEM: DβH (Homo sapiens, UniProt P09172)
VALUE: 0

I = Fc1cc(F)c(F)c([C@@H]2Cc3c[nH]c(=S)n3C2)c1F
II = Cc1[nH]c(=S)n2c1[C@@H]1C[C@]1(c1cc(Cl)ccc1F)C2
III = Cc1[nH]c(=S)n2c1[C@@H]1C[C@]1(c1c(F)ccc(Br)c1F)C2
IV = Fc1ccc(Cl)c(F)c1[C@]12C[C@H]1c1c[nH]c(=S)n1C2
V = Fc1ccc(Br)c(F)c1[C@]12C[C@H]1c1c[nH]c(=S)n1C2
rank_up(items): orders items by reported remaining activity at 0.1 µM in ascending numerical order. API: response body holds the labels in the requested order.
V, IV, III, II, I
(V: 0.5%, IV: 1.8%, III: 5.2%, II: 31.6%, I: 52.2%)

P = Fc1cc(Cl)cc([C@]23C[C@H]2c2c[nH]c(=S)n2C3)c1
Q = NC(=S)N1CC[C@H](c2ccccc2)C1 [Example 11, (R)-3-phenylpyrrolidine-1-carbothioamide]
Could you determine which record has the numerically smaller remaining activity at 0.1 µM? Candidates: P and Q Record your answer as the label of the chosen record.
P

* * *

- TARGET OR SYSTEM: DβH (Homo sapiens, UniProt P09172)
- Construct: reaction mixture (total volume 500 μl) contained: cellular homogenate (75 μg total protein); host or cells: SK-N-SH cell homogenate
- TEST SUMMARY: DβH inhibition cell assay (SK-N-SH cellular homogenates, tyramine to octopamine)
- Format: biochemical
- PARTICULARS: inhibitor 0.1 μM; SK-N-SH cell homogenate; read-out: DβH activity in % of Ctrl (0.1 μM)
MEASUREMENT LABEL: remaining activity at 0.1 µM (%)

COMPOUND: NC(=S)N1CCC(c2ccccc2)C1 (stereo not drawn) [Example 1, 3-Phenylpyrrolidine-1-carbothioamide]
TARGET OR SYSTEM: DβH (Homo sapiens, UniProt P09172)
remaining activity at 0.1 µM [%]: 75.6
--
COMPOUND: Cn1cc2n(c1=S)C[C@@H](c1c(F)c(F)cc(F)c1F)C2 [Example 114]
TARGET OR SYSTEM: DβH (Homo sapiens, UniProt P09172)
remaining activity at 0.1 µM [%]: 70.8
--
COMPOUND: Fc1cc(F)c(F)c([C@@H]2Cc3c[nH]c(=S)n3C2)c1 [Example 82]
TARGET OR SYSTEM: DβH (Homo sapiens, UniProt P09172)
remaining activity at 0.1 µM [%]: 90
--
COMPOUND: CNC(=S)N1C[C@@H]2C[C@]2(c2cc(F)cc(F)c2)C1 [Example 30]
TARGET OR SYSTEM: DβH (Homo sapiens, UniProt P09172)
remaining activity at 0.1 µM [%]: 3.3
--
COMPOUND: Fc1ccc(F)c(C23CC2CN(C(=S)NCCS)C3)c1 (stereo not drawn) [Example 40]
TARGET OR SYSTEM: DβH (Homo sapiens, UniProt P09172)
remaining activity at 0.1 µM [%]: 87.9
--
COMPOUND: Fc1ccc(F)c([C@@H]2Cc3c[nH]c(=S)n3C2)c1F [Example 112]
TARGET OR SYSTEM: DβH (Homo sapiens, UniProt P09172)
remaining activity at 0.1 µM [%]: 70

a = Fc1cc(F)cc([C@@H]2Cc3c[nH]c(=S)n3C2)c1 [Example 59]
b = NC(=S)N1CCC(c2cc(F)ccc2F)C1 (stereo not drawn) [Example 18]
c = Cc1[nH]c(=S)n2c1C[C@H](c1c(F)c(F)cc(F)c1F)C2 [Example 96]
d = Fc1ccc(Cl)c(F)c1[C@@H]1Cc2c[nH]c(=S)n2C1 [Example 85]
e = [2H]C([2H])([2H])n1cc2n(c1=S)C[C@@]1(c3cc(Cl)ccc3F)C[C@@H]21 [Example 101]
List items by remaining activity at 0.1 µM in falling order. API: response body holds the labels in the requested order.
a, b, c, e, d
(a: 100%, b: 57%, c: 32%, e: 14.5%, d: 0%)

1 = Cc1[nH]c(=S)n2c1C[C@@H](c1c(F)c(F)cc(F)c1F)C2 [Example 97]
2 = S=c1[nH]cc2n1C[C@@]1(c3cc(Cl)cc(Cl)c3)C[C@@H]21 [Example 109]
Given 1 and 2 , report the one with the higher recorded remaining activity at 0.1 µM. Record your answer as the label of the chosen record.
2

P = Fc1cccc([C@]23C[C@H]2c2c[nH]c(=S)n2C3)c1F [Example 66]
Q = [2H]C1([2H])C2([2H])c3c[nH]c(=S)n3CC12c1cc(Cl)ccc1F (stereo not drawn) [Example 102]
Given P and Q , report the one with the higher recorded remaining activity at 0.1 µM. Record your answer as the label of the chosen record.
P
(P: 51.1%, Q: 32%)

Entry source: patent US10975083B2
